test system: MDA-MB-231; assay: Antiproliferative activity against human MDA-MB-231 cells assessed as cell growth inhibition incubated for 72 hrs by sulforhodamine B assay; type: functional, cell-based; conditions: MDA-MB-231, 72 h
IC50 strictly under 6 µM means Yes; at 6 µM or over means No.

| SAMPLE_SMILES | CLASS_NAME |
| --- | --- |
| CC(=O)C1=C(O)C=C2C=CC(=O)[C@H](C)[C@@]2(C)C1 | No |
| C[C@H]1C(=O)C=C(Br)C2=CC(=O)CC[C@@]21C | No |
| CC(=O)C1=C(O)C=C2C=C[C@H](O)[C@H](C)[C@@]2(C)C1 | No |
| CC(=O)C1=C(O)C=C2C(Br)=C[C@H](O)[C@H](C)[C@@]2(C)C1 | Yes |
| C[C@H]1[C@H](O)C=CC2=CC(=O)CC[C@@]21C | No |
| C[C@H]1C(=O)C=CC2=CC(=O)CC[C@@]21C | No |
| CC(=O)C1=C(O)C=C2C(Br)=CC(=O)[C@H](C)[C@@]2(C)C1 | Yes |
| C[C@H]1[C@H](O)C=C(Br)C2=CC(=O)CC[C@@]21C | No |

These measurements were taken from ChEMBL document CHEMBL5335831.
